Recorded TGI, one value per entry.
Tested on: NCI-H522 lung
test: NCI tumour cell line growth inhibition, 48 h

[
  {
    "molecule": "CC1(C)[C@H]2CC[C@@]13C(=O)N1C(=O)O[C@@H]([C@H]1Cl)C(Cl)(COCc1ccccc1)C(=O)OCCO[C@H]3C2 (stereo not given in full)",
    "TGI": "> 100 µM"
  },
  {
    "molecule": "COc1cc(NCCCCCCCNC(C)C)c2nccc(C)c2c1",
    "TGI": "35 µM"
  },
  {
    "molecule": "c1c[nH]c(CN2CCOCC2)n1",
    "TGI": "> 100 µM"
  },
  {
    "molecule": "O=c1cc(-c2ccccc2)oc2c(-c3cc(Cl)cc4c(=O)cc(-c5ccccc5)oc34)cc(Cl)cc12",
    "TGI": "55.3 µM"
  },
  {
    "molecule": "NC(=O)N/N=C1\\CC2C3CC4C2C4C13 (stereo not given)",
    "TGI": "> 100 µM"
  }
]

* * *

System: MDA-MB-231 breast
test: NCI tumour cell line growth inhibition, 48 h
Recorded log10 of TGI, one value per entry.
endpointName: log10 of TGI (log10 of the value in µM)

[
  {
    "molecule": "C#CCN(Cc1ccc2nc(OC)c(OC)nc2c1)c1cc(OC)c(OC)c(OC)c1",
    "testSystem": "MDA-MB-231 breast",
    "measValue": 1.64
  },
  {
    "molecule": "C[C@H]1CCCC(O)C(O)[C@@H]2C[C@H](O[Si](C)(C)C(C)(C)C)C[C@H]2[C@H](O[Si](C)(C)C(C)(C)C)C(O)C(O)C(=O)O1 (stereo partly drawn)",
    "testSystem": "MDA-MB-231 breast",
    "measValue": 1.59
  },
  {
    "molecule": "COC1=C(C)C(=O)c2c(c(COC(N)=O)c3n2CC(OC(C)=O)C3OC(C)=O)C1=O (stereo not drawn)",
    "testSystem": "MDA-MB-231 breast",
    "measValue": -0.29
  },
  {
    "molecule": "CC(C)(C)c1cc(C(=O)/C=C/c2ccc3c(c2)OCO3)cc(C(C)(C)C)c1O",
    "testSystem": "MDA-MB-231 breast",
    "measValue": 1.58
  },
  {
    "molecule": "O=C1NCN(c2ccccc2)C12CCN(CCCN1CCN(CCOC(c3ccc(F)cc3)c3ccc(F)cc3)CC1)CC2",
    "testSystem": "MDA-MB-231 breast",
    "measValue": 0.65
  },
  {
    "molecule": "Cc1ccc(NC(=O)c2cc(S(=O)(=O)N3C(=O)NC(=O)NS3(=O)=O)c(S)cc2Cl)cc1",
    "testSystem": "MDA-MB-231 breast",
    "measValue": 1.76
  },
  {
    "molecule": "C=C1C(=O)O[C@H]2[C@H]1CC/C(C=Nc1c(N)cc(C(F)(F)F)cc1Br)=C\\CC[C@@]1(C)O[C@@H]21",
    "testSystem": "MDA-MB-231 breast",
    "measValue": 0.50
  },
  {
    "molecule": "CCCCCCCCCc1nn2c(Cc3ccccc3)nnc2s1",
    "testSystem": "MDA-MB-231 breast",
    "measValue": 1.74
  },
  {
    "molecule": "Cc1c2c(OCC3CCCCO3)nn(C)c(=O)c2c(C)n1-c1ccccc1 (stereo not drawn)",
    "testSystem": "MDA-MB-231 breast",
    "measValue": 1.51
  },
  {
    "molecule": "C=C1C(=O)O[C@H]2[C@H]1CC/C(COC(=O)NCC(C)c1ccc(CC(C)C)cc1)=C\\CC[C@@]1(C)O[C@@H]21 (stereo partly drawn)",
    "testSystem": "MDA-MB-231 breast",
    "measValue": 0.10
  },
  {
    "molecule": "C[C@]12CC[C@@H]3c4cc(I)c(O)cc4CC[C@H]3[C@@H]1CC[C@@H]2O",
    "testSystem": "MDA-MB-231 breast",
    "measValue": 1.40
  },
  {
    "molecule": "COC(=O)[C@H](Cc1ccccc1)NC(=O)CCCCCCC(=O)NO",
    "testSystem": "MDA-MB-231 breast",
    "measValue": 1.81
  }
]
